Experiment: A CellTox Green Cytotoxicity Assay to monitor cytotoxicity in HEK293 cells - 16 hour (AID 1224888); further: nearly all actives have a fitted effect of over 35% in size
Conditions: CellTox Green fluorescence; series mostly up to 76.8 µM
Results filed as inconclusive are left out. Activity calls are given as the source filed them. The call rests on the fitted dose curve; in most records, active means well fitted activation curve with a large enough effect in the repeat runs; inconclusive means weak or mixed curves; inactive means flat fitted curve, though single readings scatter.
readout-kind: activity change

CC(=O)O[C@H]1C[C@@H]2CC[C@@H]3[C@H](CC[C@@]4(C)[C@H]3C[C@H]([N+]3(C)CCCCC3)[C@@H]4OC(C)=O)[C@@]2(C)C[C@@H]1N1CCCCC1 | inactive
COc1ccc([C@@H]2Sc3ccccc3N(CCN(C)C)C(=O)[C@@H]2OC(C)=O)cc1 | inactive
CC(C)CCCCCCOC(=O)c1ccc(C(=O)OCCCCCCC(C)C)c(C(=O)OCCCCCCC(C)C)c1 | inactive
Nc1ccc(C(=O)N2CC3CC(CN(Cc4ccccc4)C3)C2)cc1 | inactive

Please find the next compound below.
Record request: activity change value, item CN(c1nccc(=O)[nH]1)C1CCN(c2nc3ccccc3n2Cc2ccc(F)cc2)CC1 inactive
